Target: ScFus1
Assay: SPOT peptide array binding signal intensity (averaged, normalized) (arbitrary units (background-subtracted, floor 0; scale differs between SH3 domains)); higher = stronger binding of the SH3 domain to the peptide
RECORDED ENDPOINT: SPOT peptide array binding signal intensity

[in] Could you share which SPOT peptide array binding signal intensity value was measured for "LFMKGTPEFPKSGFS" ?
[out] 738

[in] Tell me the measured SPOT peptide array binding signal intensity of "ALKQKKIPPPFKPHL" , please.
[out] ≤ 0

[in] // lookup SPOT peptide array binding signal intensity for "YVRRRPRVRLEPLLS"
[out] 706

[in] Fill blank: measured SPOT peptide array binding signal intensity of the binder "RPPRPPPKPLHLRTE" is ____.
[out] 8

[in] Reported SPOT peptide array binding signal intensity for "RNNRPVPPPPPMRTT" : what is it?
[out] 2.5

[in] // query SPOT peptide array binding signal intensity value for entry "ALRRRLPVTRSKINW"
[out] 784

[in] # lookup: SPOT peptide array binding signal intensity of "LKVTPGRRAPTISKI"
[out] 0.5

[in] Value lookup for SPOT peptide array binding signal intensity; key = "EREKALPPIPFTTTL"
[out] 2

[in] Requested field: SPOT peptide array binding signal intensity. Item: "VQKRKLPLPGSIASA"
[out] ≤ 0

[in] For the binder "PALPSLPPPPLLNVD" , what SPOT peptide array binding signal intensity is on record?
[out] ≤ 0

[in] Recorded SPOT peptide array binding signal intensity of "DLFKPLPEPPTELGR" , please.
[out] ≤ 0

[in] Data request, read-out SPOT peptide array binding signal intensity, for "LLGRKRPVMERVVDI"
[out] 163

[in] Consider the binder shown here: "PLQSKIPMLPSRRTM" What is its recorded SPOT peptide array binding signal intensity?
[out] 218

[in] What value of measured SPOT peptide array binding signal intensity is listed for "KTITLEVESSDTIDN" ?
[out] 15

[in] Please give the measured SPOT peptide array binding signal intensity for this binder: "RPKRRAPPPVPKKPS"
[out] 42.5

[in] Which value of SPOT peptide array binding signal intensity has been reported for "DLPLPDLPPEPPTEL" in the records?
[out] ≤ 0

[in] Which value of SPOT peptide array binding signal intensity has been reported for "GERSRPLVISILSSA" in the records?
[out] 3300

[in] Sample "EVTPKVPERPSRRKT" — what was its SPOT peptide array binding signal intensity?
[out] 5

[in] # get_value(readout='SPOT peptide array binding signal intensity', item= "SSSSSPPPLPTRRDH" )
[out] 20

[in] Return reported SPOT peptide array binding signal intensity; argument: "KRRTSLFPWLHKPGI"
[out] 224

[in] For the binder "TKFRISLGLPVGAIM" , what SPOT peptide array binding signal intensity is on record?
[out] 2830

[in] Sample "HVRRSILALPLGVLL" — what was its SPOT peptide array binding signal intensity?
[out] 522

[in] Item "ISNFVPPNLPMRRFK" has what recorded SPOT peptide array binding signal intensity?
[out] 17

[in] State the recorded SPOT peptide array binding signal intensity for this entry: "ITHRLRISIPGITGR"
[out] 2080

[in] Item under review: "KNPRRQLQIPRQQPS" . Reported SPOT peptide array binding signal intensity?
[out] 98

[in] Look at this binder and give its reported SPOT peptide array binding signal intensity. "QTMRQAPKRPDADVA"
[out] 1110

Provenance of the data: the supplement of paper PMC4466140
